Where do these numbers come from? They come from ChEMBL document CHEMBL1955769.

Histone deacetylase 2 (Homo sapiens, UniProt Q92769) measurements of IC50, listed per entry.
Sequence (Q92769 whole entry): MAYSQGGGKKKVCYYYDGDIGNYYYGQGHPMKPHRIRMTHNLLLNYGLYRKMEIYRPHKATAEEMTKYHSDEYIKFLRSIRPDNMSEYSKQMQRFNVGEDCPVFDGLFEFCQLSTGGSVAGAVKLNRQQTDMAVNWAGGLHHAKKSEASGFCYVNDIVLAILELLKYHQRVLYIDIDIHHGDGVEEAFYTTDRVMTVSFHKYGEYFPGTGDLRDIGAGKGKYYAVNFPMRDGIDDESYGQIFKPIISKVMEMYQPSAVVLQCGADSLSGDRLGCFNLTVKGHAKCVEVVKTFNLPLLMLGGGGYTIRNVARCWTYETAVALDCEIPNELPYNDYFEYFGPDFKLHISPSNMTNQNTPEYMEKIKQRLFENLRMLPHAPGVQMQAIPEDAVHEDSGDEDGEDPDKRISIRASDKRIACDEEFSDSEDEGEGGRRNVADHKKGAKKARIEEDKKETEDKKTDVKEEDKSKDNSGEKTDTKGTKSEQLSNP
READOUT_LABEL: IC50 (nM)

>>> experimental_result("Nc1ccc(-c2cccs2)cc1NC(=O)c1ccc(CNC(=O)N2CCOCC2)cc1")
880

P = Nc1ccccc1NC(=O)c1ccc(CN(CCO)Cc2ccc3c(c2)OCO3)cc1
Q = CCC(=O)NCc1ccc(C(=O)Nc2cc(-c3cccs3)ccc2N)cc1
Request: Given the two records P and Q , choose the one whose IC50 value is lower. Lab note: record the label of whichever item you select.
Result: Q
(Q: 470 nM, P: 3360 nM)

----------
experiment: Half life in BALB/c mouse at 45 mg/kg, po by HPLC-ESI-MS/MS analysis; format: ADME, organism-based; set-up: dose 45 mg/kg, route oral; settings: in vivo
READOUT_LABEL: half-life (h)
Numeric answer only, unit h assumed.

Request: What value of measured half-life is listed for CCN1CCN(C(=O)NCc2ccc(C(=O)Nc3cc(-c4cccs4)ccc3N)cc2)C(=O)C1=O ?
Result: 2.2

----------
assay: Cmax in BALB/c mouse at 45 mg/kg, po by HPLC-ESI-MS/MS analysis; format: ADME, organism-based; set-up: dose 45 mg/kg, route oral; settings: in vivo
READOUT_LABEL: Cmax (µM)
Numeric answer only, unit µM assumed.

Request: What value of measured Cmax is listed for CCN1CCN(C(=O)NCc2ccc(C(=O)Nc3cc(-c4cccs4)ccc3N)cc2)C(=O)C1=O ?
Result: 8.3

----------
experiment: Solubility of the compound in 10 % DMSO/Water; format: physicochemical
READOUT_LABEL: solubility (µg/mL)

>>> experimental_result("CCC(=O)NCc1ccc(C(=O)Nc2cc(-c3cccs3)ccc2N)cc1")
500

I = CN1CCN(C(=O)NCc2ccc(C(=O)Nc3cc(-c4cccs4)ccc3N)cc2)CC1
II = CCN1CCN(C(=O)NCc2ccc(C(=O)Nc3cc(-c4cccs4)ccc3N)cc2)C(=O)C1=O
III = Nc1ccccc1NC(=O)c1ccc(CN(CCO)Cc2ccc3c(c2)OCO3)cc1
Request: Arrange the 3 compounds by rising solubility, starting with the smallest. List the labels according to the requested ordering.
Result: III, II, I
(III: 200 µg/mL, II: 600 µg/mL, I: 1000 µg/mL)

----------
biological target: Histone deacetylase 1 (Homo sapiens, UniProt Q13547); assay: Inhibition of HDAC1
Sequence (Q13547 whole entry): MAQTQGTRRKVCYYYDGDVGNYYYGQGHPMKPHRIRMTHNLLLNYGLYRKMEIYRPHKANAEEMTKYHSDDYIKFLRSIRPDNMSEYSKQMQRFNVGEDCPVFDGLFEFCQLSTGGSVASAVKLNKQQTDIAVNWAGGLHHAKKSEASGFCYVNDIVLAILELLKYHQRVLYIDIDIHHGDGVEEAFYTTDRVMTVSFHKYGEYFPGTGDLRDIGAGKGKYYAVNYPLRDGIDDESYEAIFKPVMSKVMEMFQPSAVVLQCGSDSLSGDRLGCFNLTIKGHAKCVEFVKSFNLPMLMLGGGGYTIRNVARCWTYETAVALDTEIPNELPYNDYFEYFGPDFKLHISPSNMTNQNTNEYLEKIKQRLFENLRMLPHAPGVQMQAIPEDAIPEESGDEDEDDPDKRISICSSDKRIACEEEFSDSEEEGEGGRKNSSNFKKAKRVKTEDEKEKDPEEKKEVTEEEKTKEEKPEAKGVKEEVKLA
pIC50: −log10 of the molar value.
READOUT_LABEL: pIC50

Guide cases for pIC50, answers given:
>>> experimental_result("CCC(=O)NCc1ccc(C(=O)Nc2cc(-c3cccs3)ccc2N)cc1")
7.40
>>> experimental_result("Nc1ccc(-c2cccs2)cc1NC(=O)c1ccc(CN(CCO)Cc2ccc3c(c2)OCO3)cc1")
7.22

1 = CCN1CCN(C(=O)NCc2ccc(C(=O)Nc3cc(-c4cccs4)ccc3N)cc2)C(=O)C1=O
2 = Nc1ccc(-c2cccs2)cc1NC(=O)c1ccc(CNC(=O)N2CCOCC2)cc1
Request: Given the two records 1 and 2 , choose the one whose pIC50 value is lower. Lab note: record the label of whichever item you select.
Result: 2
(2: 7.00, 1: 7.30)

----------
assay: Tmax in BALB/c mouse at 45 mg/kg, po by HPLC-ESI-MS/MS analysis; format: ADME, organism-based; parameters: dose 45 mg/kg, route oral; conditions: in vivo
READOUT_LABEL: Tmax (h)
Numeric answer only, unit h assumed.

Request: What value of measured Tmax is listed for CCN1CCN(C(=O)NCc2ccc(C(=O)Nc3cc(-c4cccs4)ccc3N)cc2)C(=O)C1=O ?
Result: 1
